# SUBJECT OF TEST: 5-HT3 receptor (Rattus norvegicus)
# Sequence (P35563 24-483): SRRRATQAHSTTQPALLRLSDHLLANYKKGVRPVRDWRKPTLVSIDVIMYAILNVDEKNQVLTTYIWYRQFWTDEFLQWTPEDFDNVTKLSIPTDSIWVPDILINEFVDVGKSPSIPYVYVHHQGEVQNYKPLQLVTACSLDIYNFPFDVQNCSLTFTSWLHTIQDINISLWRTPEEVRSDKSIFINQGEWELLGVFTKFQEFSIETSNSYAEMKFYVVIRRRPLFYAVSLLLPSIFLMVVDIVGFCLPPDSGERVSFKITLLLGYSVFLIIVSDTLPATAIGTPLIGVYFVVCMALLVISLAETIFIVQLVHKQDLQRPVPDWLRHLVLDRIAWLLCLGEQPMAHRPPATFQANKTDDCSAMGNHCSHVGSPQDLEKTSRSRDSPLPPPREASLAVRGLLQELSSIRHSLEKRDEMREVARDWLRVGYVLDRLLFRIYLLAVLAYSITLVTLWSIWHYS
# PROTOCOL SUMMARY: 5-HT3 receptor binding experiment (3H-quipazine binding assay, rat cerebral cortical membrane fraction)
pIC50: −log10 of the molar value.
Assign yes (1) whenever pIC50 does not fall below 8; assign no (0) whenever it does.

Cc1ccn2ncc(C(=O)O)c2c1 [Control* 4, reference compound] : no (0)
Cc1nn2ccccc2c1C(=O)NC1CN2CCC1CC2 (centres unmarked) : no (0)
Cc1cccc2c(C(=O)O)cnn12 [Control* 6, reference compound] : no (0)
Cc1cccc2c(C(=O)N[C@H]3CN4CCC3CC4)cnn12 : no (0)
O=C(NC1CN2CCC1CC2)c1cnn2ccccc12 (centres unmarked) : no (0)

Next:
Input line: API: above_or_equal(metric=pIC50, cutoff=8) for item O=C(O)c1cnn2ccccc12 [Control* 1, Pyrazolo[1,5a]pyridine3-carboxylic acid, reference compound]
Output line: no (0)
